Measured mCherry-positive rate values are reported for all entries that follow.
# Tested on: mouse long-term hematopoietic stem cells
# Protocol details: Reproducibility and concentration dependence test: 1-week culture of sorted Hoxb5-tri-mCherry mouse long-term hematopoietic stem cells, flow cytometry
# Type: cell-based
# Test conditions: Table 4; compound 1 μM; day 7 of culture; n=2
# Text: Mice with insertion of a nucleic acid sequence containing three copies of a gene encoding the fluorescent protein mCherry to the C terminus of the mouse endogenous HoxB5 gene (Hoxb5-tri-mCherry) were used (triple-mCherry Hoxb5 knock-in mice; Non Patent Literature 1). […]
Hey, just the number and the unit after it is fine.

Please review the following examples before continuing.
C[C@H]1[C@@H](Oc2ccccc2)O[C@@H]2O[C@@]3(C)CC[C@H]4[C@H](C)CC[C@@H]1[C@@]24OO3 ... 0.0%
CC(=O)O[C@@H]1O[C@@H]2O[C@@]3(C)CC[C@H]4[C@H](C)CC[C@@H]([C@H]1C)[C@@]24OO3 ... 22.1%
CCO[C@H]1O[C@@H]2O[C@@]3(C)CC[C@H]4[C@H](C)CC[C@@H]([C@H]1C)[C@@]24OO3 [Example 1-31, artemotil, reference compound] ... 98.3%
C[C@@H]1CC[C@H]2[C@@H](C)C(=O)O[C@@H]3O[C@@]4(C)CC[C@@H]1[C@]32OO4 [Example 1-33, artemisinin, reference compound] ... 56.8%
CO[C@H]1O[C@@H]2O[C@@]3(C)CC[C@H]4[C@H](C)CC[C@@H]([C@H]1C)[C@@]24OO3 [Example 1-30, artemether, reference compound] ... 99.0%
CC(=O)N[C@@H]1O[C@@H]2O[C@@]3(C)CC[C@H]4[C@H](C)CC[C@@H]([C@H]1C)[C@@]24OO3 ... 9.1%
C[C@H]1[C@@H](CN)O[C@@H]2O[C@@]3(C)CC[C@H]4[C@H](C)CC[C@@H]1[C@@]24OO3 ... 16.1%
C[C@H]1[C@H](OC(=O)CCC(=O)O)O[C@@H]2O[C@@]3(C)CC[C@H]4[C@H](C)CC[C@@H]1[C@@]24OO3 [Example 1-32, artesunate, reference compound] ... 100.0%

Task item: Check the records and state mCherry-positive rate for `CC1=CO[C@@H]2O[C@@]3(C)CC[C@H]4[C@H](C)CC[C@@H]1[C@@]24OO3`
Reply: 35.5%

Task item: Identify measured mCherry-positive rate associated with `C[C@H]1[C@H](Oc2ccccc2)O[C@@H]2O[C@@]3(C)CC[C@H]4[C@H](C)CC[C@@H]1[C@@]24OO3`
Reply: 0.0%

Task item: Read the entry `C[C@H]1[C@@H](F)O[C@@H]2O[C@@]3(C)CC[C@H]4[C@H](C)CC[C@@H]1[C@@]24OO3` and write its reported mCherry-positive rate.
Reply: 50.0%

Task item: For the compound `C[C@H]1[C@@H](c2ccccc2)O[C@@H]2O[C@@]3(C)CC[C@H]4[C@H](C)CC[C@@H]1[C@@]24OO3` , report mCherry-positive rate.
Reply: 0.0%
